Content of the compound of the formula [I] in aqueous solution after kept for 60 days by entry:
test: Storage of aqueous solution or slurry for 60 days: HPLC analysis of components and appearance; type: physicochemical; details: keeping temperature 75° C.
measured.endpoint: Content of the compound of the formula [I] in aqueous solution after kept for 60 days (wt. %)

>>> endpoint_value("O=C([O-])CC(NCCNC(CC(=O)[O-])C(=O)[O-])C(=O)[O-].[Na+].[Na+].[Na+].[Na+] (stereo not drawn) [Example 117]")
49.8
>>> endpoint_value("O=C([O-])C[C@H](NCC(O)CN[C@@H](CC(=O)[O-])C(=O)[O-])C(=O)[O-].[Cu+2].[Na+].[Na+] [compound 52, reference compound]")
38.7
>>> endpoint_value("O=C([O-])C[C@H](NCCCN[C@@H](CC(=O)[O-])C(=O)[O-])C(=O)[O-].[Na+].[Na+].[Na+].[Na+] [compound 46, reference compound]")
40.7
